Organism: Rattus norvegicus
Experiment Description: Open TG-GATES - Regimen: Single
Type: toxicity, organism-based, Sprague-Dawley
Design: regimen Single, gender Male, age 6 weeks
Condition Context: in vivo, po, 0 mg/kg, 9 h, tissue Plasma, route gavage, dose level Control
Measured Attribute: BUN (mg/dL)

Molecule	Measured Attribute	Obs Value
C[C@H]1C(=O)O[C@@H]2CCN3CC=C(COC(=O)[C@](C)(O)[C@]1(C)O)[C@H]23	BUN	10.4
C[C@H]1O[C@H](O[C@H]2[C@H](O)[C@@H](O)[C@@H](O[C@H]3[C@H](O)[C@@H](O)C(O)O[C@@H]3CO)O[C@@H]2CO)[C@H](O)[C@@H](O)[C@@H]1N[C@H]1C=C(CO)[C@@H](O)[C@H](O)[C@H]1O (some centres undefined)	BUN	8.6
Cn1cc[nH]c1=S	BUN	11.4
O=[N+]([O-])c1ccc(O)c([N+](=O)[O-])c1	BUN	11.6

---

Species on record: Rattus norvegicus
Experiment Description: Open TG-GATES - Regimen: Single
Assay type: toxicity, organism-based, Sprague-Dawley
Parameters: regimen Single, gender Male, age 6 weeks
Condition Context: in vivo, po, 0 mg/kg, 3 h, tissue Kidney, route gavage, dose level Control
Listing: KIDNEY_L of selected compounds

Compound	KIDNEY_L
CCOC(=O)C(C)(C)Oc1ccc(Cl)cc1 [CLOFIBRATE]	0.9 g
OCCN1CCN(CCCN2c3ccccc3Sc3ccc(C(F)(F)F)cc32)CC1 [FLUPHENAZINE]	0.9 g
C[C@H]1C(=O)O[C@@H]2CCN3CC=C(COC(=O)[C@](C)(O)[C@]1(C)O)[C@H]23 [MONOCROTALINE]	1 g
C[C@H]1O[C@H](O[C@H]2[C@H](O)[C@@H](O)[C@@H](O[C@H]3[C@H](O)[C@@H](O)C(O)O[C@@H]3CO)O[C@@H]2CO)[C@H](O)[C@@H](O)[C@@H]1N[C@H]1C=C(CO)[C@@H](O)[C@H](O)[C@H]1O (stereo partly specified) [ACARBOSE]	0.9 g
Cc1ccc2cc3c(ccc4ccccc43)c3c2c1CC3 [3-METHYLCHOLANTHRENE]	0.9 g
Cc1cccc(C)c1OCC(C)N (stereo unspecified) [MEXILETINE]	0.9 g

---

Listing: Neu of selected molecules
Species: Rattus norvegicus
Experiment Description: Open TG-GATES - Regimen: Single
Type: toxicity, organism-based, Sprague-Dawley
Design: regimen Single, gender Male, age 6 weeks
Condition Context: in vivo, po, 0 mg/kg, 6 h, tissue Blood, route gavage, dose level Control
Measured Attribute: Neu (%)

Molecule	Unit Info	Obs Value
OCCN1CCN(CCCN2c3ccccc3Sc3ccc(C(F)(F)F)cc32)CC1	%	15.4
C[C@H]1O[C@H](O[C@H]2[C@H](O)[C@@H](O)[C@@H](O[C@H]3[C@H](O)[C@@H](O)C(O)O[C@@H]3CO)O[C@@H]2CO)[C@H](O)[C@@H](O)[C@@H]1N[C@H]1C=C(CO)[C@@H](O)[C@H](O)[C@H]1O (some centres undefined)	%	22.4
Cn1cc[nH]c1=S	%	13.8
C=C(C)[C@H]1Cc2c(ccc3c2O[C@@H]2COc4cc(OC)c(OC)cc4[C@@H]2C3=O)O1	%	17.6
CCOC(=O)C(C)(C)Oc1ccc(Cl)cc1 [CLOFIBRATE]	%	18.4
Cc1cccc(C)c1OCC(C)N (centres undefined)	%	17.2
O=[N+]([O-])c1ccc(O)c([N+](=O)[O-])c1	%	12.4
Cc1ccc2cc3c(ccc4ccccc43)c3c2c1CC3	%	26.2
C[C@H]1C(=O)O[C@@H]2CCN3CC=C(COC(=O)[C@](C)(O)[C@]1(C)O)[C@H]23	%	14.8

---

Organism: Rattus norvegicus
Experiment Description: Open TG-GATES - Regimen: Single
Type: toxicity, organism-based, Sprague-Dawley
Parameters: regimen Single, gender Male, age 6 weeks
Condition Context: in vivo, po, 0 mg/kg, 6 h, tissue Blood, route gavage, dose level Control

Molecule	Unit Info	WBC
O=[N+]([O-])c1ccc(O)c([N+](=O)[O-])c1 [2,4-DINITROPHENOL]	x10_2/uL	127.4
C[C@H]1C(=O)O[C@@H]2CCN3CC=C(COC(=O)[C@](C)(O)[C@]1(C)O)[C@H]23 [MONOCROTALINE]	x10_2/uL	94
OCCN1CCN(CCCN2c3ccccc3Sc3ccc(C(F)(F)F)cc32)CC1 [FLUPHENAZINE]	x10_2/uL	105.2
Cc1cccc(C)c1OCC(C)N (centres undefined) [MEXILETINE]	x10_2/uL	112.2
C[C@H]1O[C@H](O[C@H]2[C@H](O)[C@@H](O)[C@@H](O[C@H]3[C@H](O)[C@@H](O)C(O)O[C@@H]3CO)O[C@@H]2CO)[C@H](O)[C@@H](O)[C@@H]1N[C@H]1C=C(CO)[C@@H](O)[C@H](O)[C@H]1O (some centres undefined) [ACARBOSE]	x10_2/uL	74.2
Cc1ccc2cc3c(ccc4ccccc43)c3c2c1CC3 [3-METHYLCHOLANTHRENE]	x10_2/uL	125.8
CCOC(=O)C(C)(C)Oc1ccc(Cl)cc1 [CLOFIBRATE]	x10_2/uL	91.8
C=C(C)[C@H]1Cc2c(ccc3c2O[C@@H]2COc4cc(OC)c(OC)cc4[C@@H]2C3=O)O1 [ROTENONE]	x10_2/uL	92.8
Cn1cc[nH]c1=S [METHIMAZOLE]	x10_2/uL	103.6

---

Listing: Ca of selected compounds
Organism: Rattus norvegicus
Experiment Description: Open TG-GATES - Regimen: Daily Repeat
Assay type: toxicity, organism-based, Sprague-Dawley
Parameters: regimen Daily Repeat, gender Male, age 6 weeks
Condition Context: in vivo, po, 0 mg/kg, 72 h, tissue Plasma, route gavage, dose level Control, time 3 day
Measured Attribute: Ca

Compound	Measured Attribute	Obs Value
Cc1cccc(C)c1OCC(C)N (centres undefined) [MEXILETINE]	Ca	10.4 mg/dL
CCOC(=O)C(C)(C)Oc1ccc(Cl)cc1 [CLOFIBRATE]	Ca	11.1 mg/dL
O=C1CN(/N=C/c2ccc([N+](=O)[O-])o2)C(=O)N1 [NITROFURANTOIN]	Ca	10.8 mg/dL
C[C@H]1C(=O)O[C@@H]2CCN3CC=C(COC(=O)[C@](C)(O)[C@]1(C)O)[C@H]23 [MONOCROTALINE]	Ca	10.6 mg/dL
C=C(C)[C@H]1Cc2c(ccc3c2O[C@@H]2COc4cc(OC)c(OC)cc4[C@@H]2C3=O)O1 [ROTENONE]	Ca	11.3 mg/dL
Cn1cc[nH]c1=S [METHIMAZOLE]	Ca	10.8 mg/dL
O=[N+]([O-])c1ccc(O)c([N+](=O)[O-])c1 [2,4-DINITROPHENOL]	Ca	11.6 mg/dL
C[C@H]1O[C@H](O[C@H]2[C@H](O)[C@@H](O)[C@@H](O[C@H]3[C@H](O)[C@@H](O)C(O)O[C@@H]3CO)O[C@@H]2CO)[C@H](O)[C@@H](O)[C@@H]1N[C@H]1C=C(CO)[C@@H](O)[C@H](O)[C@H]1O (some centres undefined) [ACARBOSE]	Ca	10.8 mg/dL
OCCN1CCN(CCCN2c3ccccc3Sc3ccc(C(F)(F)F)cc32)CC1 [FLUPHENAZINE]	Ca	10.8 mg/dL

---

Listing: TBIL of selected compounds
Species on record: Rattus norvegicus
Experiment Description: Open TG-GATES - Regimen: Single
Assay type: toxicity, organism-based, Sprague-Dawley
Parameters: regimen Single, gender Male, age 6 weeks
Condition Context: in vivo, po, 0 mg/kg, 6 h, tissue Plasma, route gavage, dose level Control

Compound	TBIL, mg/dL
C[C@H]1O[C@H](O[C@H]2[C@H](O)[C@@H](O)[C@@H](O[C@H]3[C@H](O)[C@@H](O)C(O)O[C@@H]3CO)O[C@@H]2CO)[C@H](O)[C@@H](O)[C@@H]1N[C@H]1C=C(CO)[C@@H](O)[C@H](O)[C@H]1O (some centres undefined)	0.064
C[C@H]1C(=O)O[C@@H]2CCN3CC=C(COC(=O)[C@](C)(O)[C@]1(C)O)[C@H]23	0.026
CCOC(=O)C(C)(C)Oc1ccc(Cl)cc1 [CLOFIBRATE]	0.2
C=C(C)[C@H]1Cc2c(ccc3c2O[C@@H]2COc4cc(OC)c(OC)cc4[C@@H]2C3=O)O1	0.048
OCCN1CCN(CCCN2c3ccccc3Sc3ccc(C(F)(F)F)cc32)CC1	0.4
Cn1cc[nH]c1=S	0.022
Cc1cccc(C)c1OCC(C)N (centres undefined)	0.028
O=[N+]([O-])c1ccc(O)c([N+](=O)[O-])c1	0.056
Cc1ccc2cc3c(ccc4ccccc43)c3c2c1CC3	0.014
